Cited source: patent US10370697B2

Test system: MIN6 cells expressing proinsulin-luciferase construct
Assay: High-throughput luciferase secretion screen, proinsulin-luciferase reporter, 384-well
Type: cell-based, mouse
Settings: luciferase secretion, repeated 1600-compound screen, 100 mg/dL glucose, 30 μM, 1 hour
assay.endpoint: Z-score With Glucose
One number for each entry.

* CCN(CC)CCNC(C(=O)OCCC(C)C)c1ccccc1 (centres unmarked) | 4.7
* Oc1ccc(OCc2ccccc2)cc1 | 31.8
* CC(=O)[C@@]1(O)CC[C@H]2[C@@H]3CCC4=CC(=O)CC[C@]4(C)[C@H]3CC[C@@]21C [Hydroxyprogesterone] | 18.3

Dear colleague, could you send me Z-score With Glucose for each of the items below? Thanks.
1. Clc1ccc(Cn2c(CN3CCCC3)nc3ccccc32)cc1
2. COc1c2ccoc2cc2oc(=O)ccc12
3. CCCNCC(O)COc1ccccc1C(=O)CCc1ccccc1 (centres unmarked)
4. O=C(CCCN1CCC2(CC1)C(=O)NCN2c1ccccc1)c1ccc(F)cc1
5. CCN(CC)CCOC(=O)C(Cc1cccc2ccccc12)CC1CCCO1 (centres unmarked)

Result:
1. 12.2
2. 20.9
3. 10.5
4. 9.0
5. 17.8
